Reference source: patent US20160272683A1

# Assay System: T1, human amylin receptor (human calcitonin receptor + human RAMP3) (human) (UniProt P30988)
# T1 sequence (looked up) 1: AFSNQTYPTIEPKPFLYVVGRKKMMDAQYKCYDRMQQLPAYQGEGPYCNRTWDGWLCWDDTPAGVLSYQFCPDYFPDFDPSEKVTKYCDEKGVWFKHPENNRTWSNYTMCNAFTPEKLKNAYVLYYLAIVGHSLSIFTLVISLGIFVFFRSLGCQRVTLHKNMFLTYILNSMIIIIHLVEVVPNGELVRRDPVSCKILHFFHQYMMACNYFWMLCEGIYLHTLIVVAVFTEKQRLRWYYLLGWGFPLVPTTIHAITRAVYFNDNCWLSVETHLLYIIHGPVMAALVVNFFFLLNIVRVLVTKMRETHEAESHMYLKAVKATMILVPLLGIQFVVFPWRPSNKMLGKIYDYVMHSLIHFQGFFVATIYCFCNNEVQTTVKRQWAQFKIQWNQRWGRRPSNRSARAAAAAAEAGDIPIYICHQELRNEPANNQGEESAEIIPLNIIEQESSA
# T1 sequence (looked up) 2: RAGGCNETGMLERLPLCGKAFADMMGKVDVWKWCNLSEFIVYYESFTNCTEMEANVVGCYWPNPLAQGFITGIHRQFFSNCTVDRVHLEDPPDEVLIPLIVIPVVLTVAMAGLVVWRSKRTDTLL
# Assay Name: whole-cell competition vs 125I-rat amylin (Assay Va)
Numbered stars: 1 amine (or outer) side, 2 acyl side, 3 side chain; on linkers, the order of the positions; unused ones are H or OH. Ends that are not written are not given here. * marks the point of attachment. C20 diacid = O=C(O)CCCCCCCCCCCCCCCCCCC(=O)*; C18 diacid = O=C(O)CCCCCCCCCCCCCCCCC(=O)*; C16 diacid = O=C(O)CCCCCCCCCCCCCCC(=O)*; γGlu = O=C(O)[C@H](CCC(=O)[*:2])N[*:1]
Measurement Type: IC50 (nM)

// solved cases for IC50 follow
[
  {
    "Binder": "{C16 diacid}-EASELSTAALGRLSAELHELATLPRTETGPESP-NH2 [[N-terminal(C16 diacid)]mimylin]",
    "Value Measured": 0.498
  },
  {
    "Binder": "ASELTTAVLGRLEAELHELTTLPRTETGTGTP-NH2 [[des1, 6T, 9V, 14E, 21T, 30T, 31G, 32T]mimylin]",
    "Value Measured": 71.4
  },
  {
    "Binder": "{C18 diacid}-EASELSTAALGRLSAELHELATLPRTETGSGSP-NH2 [[N-terminal(C18 diacid), 30S, 31G]mimylin]",
    "Value Measured": 0.187
  },
  {
    "Binder": "LSGLSTAVLGRLSQELHELQTYPRTETGSQTY-NH2 [[des1, 2L, 4G, 9V, 15Q, 21Q, 23Y, 30S, 31Q, 32T, 33Y]mimylin]",
    "Value Measured": 1.18
  },
  {
    "Binder": "{C20 diacid}-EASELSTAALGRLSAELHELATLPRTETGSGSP-NH2 [[N-terminal(C20 diacid), 30S, 31G]mimylin]",
    "Value Measured": 0.24
  }
]

a = {C18 diacid-γGlu}-ASELTTAVLGRLEAELHELTTLPRTETGTGTP-NH2 [[N-terminal(C18 diacid-gGlu), des1, 6T, 9V, 14E, 21T, 30T, 31G, 32T]mimylin]
b = ASEVSTAVLGRLSAELHELATLPRTETGSGSP-NH2 [[des1, 5V, 9V, 30S, 31G]mimylin]
Incoming: Input pair: a , b . Output: entry with lower IC50. Answer by quoting the chosen item's label.
Outgoing: b
(b: 0.982 nM, a: 19.7 nM)

I = {C18 diacid}-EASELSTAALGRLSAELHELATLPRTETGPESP-OH [[N-terminal(C18 diacid), C-terminal(-)]mimylin]
II = {C20 diacid-γGlu}-ASELSTAALGHLSAELHELATLPRTETGSGSP-NH2 [[N-terminal(C20 diacid-gGlu), des1, 12H, 30S, 31G]mimylin]
III = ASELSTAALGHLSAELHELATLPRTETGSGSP-NH2 [[des1, 12H, 30S, 31G]mimylin]
IV = {C20 diacid-γGlu}-ASGLSTAALGRLSAELHELATYPRTETGSGSP-NH2 [[N-terminal(C20 diacid-gGlu), des1, 4G, 23Y, 30S, 31G]mimylin]
Incoming: Could you please order the items by IC50, going from the lowest number to the highest? Give me the labels in the order the question wants.
Outgoing: IV, II, III, I
(IV: 0.111 nM, II: 0.697 nM, III: 5.1 nM, I: 298 nM)
